- Test system: SF-268
- Experiment Notes: NCI tumour cell line growth inhibition, 48 h
Active and inactive are the calls of the source. Rule as the data show it: active = GI50 up to about 1.1 µM and inactive = higher.
The categories you may choose from are T (active), F (inactive)

As a guide, the following entries are already answered.
>>> label_class("N#Cc1cc2c(n(C3OC(CO)C(O)C(O)C3O)c1=S)CCCCCC2 (stereo not drawn)")
"F"
>>> label_class("O=C1OC(c2ccccc2)C2CC3CC4(CCC3CN12)OCCO4 (stereo not drawn)")
"F"
>>> label_class("CC(=O)Oc1ccn2nc(C)c(Br)c2c1")
"F"

Moving on to another compound below.
Q) Status in this test for CCCN(CCC)C1CC(n2cc(C)c(=O)[nH]c2=O)OC1CO (stereo not drawn) ?
A) F

Reference for the values: ChEMBL document CHEMBL1201862
